Assay system: CB1 (UniProt P21554)
Assay remarks: CB1 radioligand binding assay
Parameters: species or system human
Setup conditions: read-out: Ki (CB1)
Outcome measure: Ki (nM)
The reply should be a number in nM, with the unit left off.

Consider the worked cases shown below.
# Compound, Recorded measurement
records = [
    ("N/C(=N\\C(=N\\S(=O)(=O)c1ccc(C(F)(F)F)cc1)N1CCC(c2ccccc2)C(c2ccc(Cl)cc2)=N1)c1ccccn1 (single isomer, unassigned) [Compound 10vE2]", 5),
    ("CS/C(N)=N\\C(=N\\S(=O)(=O)c1ccc(Cl)cc1)N1CCC(c2ccccc2)C(c2ccc(Cl)cc2)=N1 (stereo not drawn) [Compound 11a]", 210),
    ("CCC(N/C(=N/S(=O)(=O)c1ccc(C(F)(F)F)cc1)N1CCC(c2ccccc2)C(c2ccc(Cl)cc2)=N1)C(N)=O (single isomer, unassigned) [Compound 32a]", 785),
]

Form field: reported Ki of COC(=O)C(N/C(=N/S(=O)(=O)c1ccc(C(F)(F)F)cc1)N1CCC(c2ccccc2)C(c2ccc(Cl)cc2)=N1)C(C)C (single isomer, unassigned) [Compound 34b]
2.71

Form field: reported Ki of CS/C(N)=N\C(=N\S(=O)(=O)c1ccc(C#N)cc1)N1CCC(c2ccccc2)C(c2ccc(Cl)cc2)=N1 (stereo not drawn) [Compound 11e]
138

Form field: reported Ki of CS/C(N)=N\C(=N\S(=O)(=O)c1ccccc1)N1CCC(c2ccccc2)C(c2ccc(Cl)cc2)=N1 (stereo not drawn) [Compound 11g]
1600

###

IC50 overview
Assay system: Brain/CB1 (Mus musculus, UniProt P47746)
Sequence (P47746 whole entry): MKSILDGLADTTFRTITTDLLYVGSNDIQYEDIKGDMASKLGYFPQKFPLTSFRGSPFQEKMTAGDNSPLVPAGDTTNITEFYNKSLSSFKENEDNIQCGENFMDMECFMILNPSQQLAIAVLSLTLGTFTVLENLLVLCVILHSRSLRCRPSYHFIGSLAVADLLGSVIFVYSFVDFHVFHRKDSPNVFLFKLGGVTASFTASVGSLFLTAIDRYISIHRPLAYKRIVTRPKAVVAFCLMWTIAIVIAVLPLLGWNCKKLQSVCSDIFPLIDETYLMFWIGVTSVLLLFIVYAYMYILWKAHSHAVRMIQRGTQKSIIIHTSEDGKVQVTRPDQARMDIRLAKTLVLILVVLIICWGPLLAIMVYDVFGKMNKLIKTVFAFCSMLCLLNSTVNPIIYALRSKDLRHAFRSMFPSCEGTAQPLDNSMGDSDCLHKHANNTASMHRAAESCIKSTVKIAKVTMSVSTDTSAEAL
Assay remarks: Functional GTPγS binding, Brain/CB1

Consider the worked cases shown below.
# Compound, Outcome measure, Recorded measurement
rows = [
    ("C/C(N)=N\\C(=N\\S(=O)(=O)c1ccccc1C(F)(F)F)N1CCC(c2ccccc2)C(c2ccc(Cl)cc2)=N1 (stereo not drawn) [Compound 10k]", "IC50", "125 nM"),
    ("CC(C)C(N/C(=N/S(=O)(=O)c1ccc(C(F)(F)F)cc1)N1CCC(c2ccccc2)C(c2ccc(Cl)cc2)=N1)C(N)=O (single isomer, unassigned) [Compound 29a]", "IC50", "389 nM"),
    ("C/C(N)=N\\C(=N\\S(=O)(=O)c1ccc(C(F)(F)F)cc1)N1CCC(c2ccccc2)C(c2ccc(Cl)cc2)=N1 (stereo not drawn) [Compound 10b]", "IC50", "93 nM"),
    ("C/C(N)=N/C(=N/S(=O)(=O)c1ccc(C(F)(F)F)cc1)N1CCC(c2ccccc2)C(c2ccc(Br)cc2)=N1 (stereo not drawn) [Compound 10y]", "IC50", "92 nM"),
    ("COc1ccc(S(=O)(=O)/N=C(/NC(C(N)=O)C(C)C)N2CCC(c3ccccc3)C(c3ccc(Cl)cc3)=N2)cc1 (single isomer, unassigned) [Compound 27a]", "IC50", "> 1000 nM"),
]

Let's switch to this compound now.
Form field: reported IC50 of N/C(=N\C(=N\S(=O)(=O)c1ccc(C(F)(F)F)cc1)N1CCC(c2ccccc2)C(c2ccc(F)cc2)=N1)c1ccccn1 (stereo not drawn) [Compound 10zf]
209 nM

###

Assay system: UniProtKB P21554
Assay remarks: CB1 radioligand binding assay
Parameters: species or system human
Setup conditions: read-out: Ki (CB1)
log10(Ki) overview
Recall that a logarithmic scale is used here: each number is log10 of Ki in nM.

# Compound, log10(Ki)
records = [
    ("COC(=O)CN/C(=N/S(=O)(=O)c1ccc(C(F)(F)F)cc1)N1CCC(c2ccccc2)C(c2ccc(Cl)cc2)=N1 (centres unmarked)", 0.64),
    ("N#Cc1ccc(S(=O)(=O)/N=C(/N=C2\\CCCCN2)N2CCC(c3ccccc3)C(c3ccc(Cl)cc3)=N2)cc1 (centres unmarked) [Compound 13b]", 1.30),
    ("CC(C)(C)/C(N)=N/C(=N/S(=O)(=O)c1ccc(C(F)(F)F)cc1)N1CCC(c2ccccc2)C(c2ccc(Br)cc2)=N1 (centres unmarked) [Compound 10x]", 1.31),
    ("CC(C)(C)/C(N)=N/C(=N/S(=O)(=O)c1ccc(C(F)(F)F)cc1)N1CCC(c2ccccc2)C(c2ccc(F)cc2)=N1 (centres unmarked) [Compound 10zb]", 1.88),
    ("C[Se]/C(N)=N\\C(=N\\S(=O)(=O)c1ccccc1)N1CCC(c2ccccc2)C(c2ccc(Cl)cc2)=N1 (centres unmarked) [Compound 12g]", 3.45),
    ("NC(=O)CN/C(=N/S(=O)(=O)c1ccc(C(F)(F)F)cc1)N1CCC(c2ccccc2)C(c2ccc(Cl)cc2)=N1 (centres unmarked)", 1.00),
    ("O=S(=O)(/N=C(\\N=C1/CCCN1)N1CCC(c2ccccc2)C(c2ccc(Cl)cc2)=N1)c1ccc(C(F)(F)F)cc1 (centres unmarked)", 2.07),
]

Form field: reported log10(Ki) of CS/C(N)=N\C(=N\S(=O)(=O)c1ccc2ccccc2c1)N1CCC(c2ccccc2)C(c2ccc(Cl)cc2)=N1 (centres unmarked) [Compound 11f]
2.77

###

Assay system: CB1 (UniProt P21554)
Assay remarks: CB1 radioligand binding assay
Design: species or system human
Setup conditions: read-out: Ki (CB1)
Lab note: anything with Ki below 0.01 µM is marked class 1; values at 0.01 µM or higher are marked class 0.

Field: example entries. Status: answers known.
# Compound, Assigned label
rows = [
    ("N/C(=N\\C(=N\\S(=O)(=O)c1ccc(C(F)(F)F)cc1)N1CCC(c2ccccc2)C(c2ccc(F)cc2)=N1)c1ccccc1F (stereo not drawn) [Compound 10zd]", "class 0"),
    ("N/C(=N\\C(=N\\S(=O)(=O)c1ccc(C(F)(F)F)cc1)N1CCC(c2ccccc2)C(c2ccc(Cl)cc2)=N1)c1ccccc1F (stereo not drawn) [Compound 10t]", "class 1"),
    ("C/C(N)=N\\C(=N\\S(=O)(=O)c1ccc(C(F)(F)F)cc1)N1CCC(c2ccccc2)C(c2ccc(Cl)cc2)=N1 (stereo not drawn) [Compound 10b]", "class 0"),
    ("CS/C(N)=N/C(=N/S(=O)(=O)c1ccc(C(F)(F)F)cc1)N1CCC(c2ccccc2)C(c2ccc(F)cc2)=N1 (stereo not drawn) [Compound 11j]", "class 0"),
    ("CCC(N/C(=N/S(=O)(=O)c1ccc(C(F)(F)F)cc1)N1CCC(c2ccccc2)C(c2ccc(Cl)cc2)=N1)C(N)=O (single isomer, unassigned) [Compound 32b]", "class 0"),
]

Consider C/C(N)=N\C(=N\S(=O)(=O)c1ccc(C)cc1)N1CCC(c2ccccc2)C(c2ccc(Cl)cc2)=N1 (stereo not drawn) [Compound 101] . Does its Ki lie strictly below 0.01 µM?
class 0

###

Papp B→A overview
Assay remarks: Caco-2 permeability (A-B and B-A)
Assay type: in vitro ADME
Setup conditions: human, Caco-2, replicate 1; read-out: Papp (BA), 10^−6 cm/s, 1
The reply should be a number in ×10⁻⁶ cm/s, with the unit left off.

Consider the worked cases shown below.
# Compound, Papp B→A / ×10⁻⁶ cm/s
measured = [
    ("N/C(=N\\C(=N\\S(=O)(=O)c1ccc(C(F)(F)F)cc1)N1CCC(c2ccccc2)C(c2ccc(Cl)cc2)=N1)c1ccc(F)cc1F (stereo not shown) [Compound 10p]", 0.6),
    ("CC(C)(C)/C(N)=N/C(=N/S(=O)(=O)c1ccc(C(F)(F)F)cc1)N1CCC(c2ccccc2)C(c2ccc(Cl)cc2)=N1 (stereo not shown) [Compound 10o]", 0.5),
    ("C/C(N)=N\\C(=N\\S(=O)(=O)c1ccc(C(F)(F)F)cc1)N1CCC(c2ccccc2)C(c2ccc(Cl)cc2)=N1 (stereo not shown) [Compound 10b]", 1.9),
]

Form field: reported Papp B→A of CC(C)C(N/C(=N/S(=O)(=O)c1ccc(C(F)(F)F)cc1)N1CCC(c2ccccc2)C(c2ccc(Cl)cc2)=N1)C(N)=O (single isomer, unassigned) [Compound 29b]
0.3

###

Assay remarks: Metabolic stability in mouse liver microsomes
Assay type: in vitro ADME
Setup conditions: mouse, liver microsomes, read-out: t1/2, min
half-life overview
The reply should be a number in h, with the unit left off.

Consider the worked cases shown below.
# Molecule, half-life (h)
measured = [
    ("C/C(N)=N\\C(=N\\S(=O)(=O)c1ccc(C(F)(F)F)cc1)N1CCC(c2ccccc2)C(c2ccc(Cl)cc2)=N1 (stereo not drawn) [Compound 10b]", 0.813),
    ("CC(C)(C)/C(N)=N/C(=N/S(=O)(=O)c1ccc(C(F)(F)F)cc1)N1CCC(c2ccccc2)C(c2ccc(Cl)cc2)=N1 (stereo not drawn) [Compound 10o]", 1.13),
]

Form field: reported half-life of N/C(=N\C(=N\S(=O)(=O)c1ccc(C(F)(F)F)cc1)N1CCC(c2ccccc2)C(c2ccc(Cl)cc2)=N1)c1ccc(F)cc1F (stereo not drawn) [Compound 10p]
1.3

###

pIC50 overview
Assay system: Brain/CB1 (Mus musculus, UniProt P47746)
Assay remarks: Functional GTPγS binding, Brain/CB1
In plain terms, pIC50 is the concentration in mol/L turned into minus its base-10 logarithm.

Consider the worked cases shown below.
# Compound, Recorded measurement
records = [
    ("C/C(N)=N\\C(=N\\S(=O)(=O)c1ccc(C#N)cc1)N1CCC(c2ccccc2)C(c2ccc(Cl)cc2)=N1 (stereo not shown) [Compound 10e]", 6.47),
    ("N/C(=N\\C(=N\\S(=O)(=O)c1ccc(C(F)(F)F)cc1)N1CCC(c2ccccc2)C(c2ccc(Cl)cc2)=N1)c1ccccc1F (stereo not shown) [Compound 10t]", 7.60),
    ("NC(=O)C(Cc1ccccc1)N/C(=N/S(=O)(=O)c1ccc(C(F)(F)F)cc1)N1CCC(c2ccccc2)C(c2ccc(Cl)cc2)=N1 (single isomer, unassigned) [Compound 33b]", 7.92),
    ("C/C(N)=N\\C(=N\\S(=O)(=O)c1ccccc1)N1CCC(c2ccccc2)C(c2ccc(Cl)cc2)=N1 (stereo not shown) [Compound 10g]", 6.45),
    ("CC(N/C(=N/S(=O)(=O)c1ccc(C(F)(F)F)cc1)N1CCC(c2ccccc2)C(c2ccc(Cl)cc2)=N1)C(N)=O (single isomer, unassigned) [Compound 31a]", 6.06),
    ("COC(=O)C(N/C(=N/S(=O)(=O)c1ccc(C(F)(F)F)cc1)N1CCC(c2ccccc2)C(c2ccc(Cl)cc2)=N1)C(C)C (single isomer, unassigned) [Compound 34a]", 7.39),
    ("NC(=O)CN/C(=N/S(=O)(=O)c1ccc(Cl)cc1)N1CCC(c2ccccc2)C(c2ccc(Cl)cc2)=N1 (stereo not shown) [Compound 25]", 6.68),
    ("N/C(=N/C(=N/S(=O)(=O)c1ccc(C(F)(F)F)cc1)N1CCC(c2ccccc2)C(c2ccc(Cl)cc2)=N1)c1ccccc1Cl (stereo not shown) [Compound 10s]", 7.72),
    ("COC(=O)C(N/C(=N/S(=O)(=O)c1ccc(C(F)(F)F)cc1)N1CCC(c2ccccc2)C(c2ccc(Cl)cc2)=N1)C(C)C (single isomer, unassigned) [Compound 34b]", 7.77),
    ("CS/C(N)=N\\C(=N\\S(=O)(=O)c1ccc(C(F)(F)F)cc1)N1CCC(c2ccccc2)C(c2ccc(Cl)cc2)=N1 (stereo not shown) [Compound 11b]", 6.90),
]

Form field: reported pIC50 of N/C(=N\C(=N\S(=O)(=O)c1ccc(C(F)(F)F)cc1)N1CCC(c2ccccc2)C(c2ccc(Cl)cc2)=N1)c1ccccn1 (stereo not shown) [Compound 10v]
7.59

Form field: reported pIC50 of CCS/C(N)=N\C(=N/S(=O)(=O)c1ccc(C(F)(F)F)cc1)N1CCC(c2ccccc2)C(c2ccc(Cl)cc2)=N1 (stereo not shown) [Compound 11i]
6.19

Form field: reported pIC50 of O=S(=O)(/N=C(/N=C1\CCCCN1)N1CCC(c2ccccc2)C(c2ccc(Cl)cc2)=N1)c1ccc(C(F)(F)F)cc1 (stereo not shown) [Compound 16]
6.98

Form field: reported pIC50 of N/C(=N\C(=N\S(=O)(=O)c1ccc(C(F)(F)F)cc1)N1CCC(c2ccccc2)C(c2ccc(Cl)cc2)=N1)C1CC1 (stereo not shown) [Compound 10n]
6.68

Form field: reported pIC50 of N/C(=N\C(=N\S(=O)(=O)c1ccc(C(F)(F)F)cc1)N1CCC(c2ccccc2)C(c2ccc(Cl)cc2)=N1)c1ccc(F)cc1F (stereo not shown) [Compound 10p]
7.89

Form field: reported pIC50 of COc1ccc(S(=O)(=O)/N=C(/N=C(\C)N)N2CCC(c3ccccc3)C(c3ccc(Cl)cc3)=N2)cc1 (stereo not shown) [Compound 10h]
6.45

Form field: reported pIC50 of C/C(N)=N\C(=N\S(=O)(=O)c1ccc(C(F)(F)F)cc1)N1CCC(c2ccccc2)C(c2ccc(Cl)cc2)=N1 (single isomer, unassigned) [Compound 10bE2]
7.47

Where these numbers come from: patent US20250197359A1
